Listing of recorded self-cleavage by entry.
B1: HDV Ribozyme (parent)
chain: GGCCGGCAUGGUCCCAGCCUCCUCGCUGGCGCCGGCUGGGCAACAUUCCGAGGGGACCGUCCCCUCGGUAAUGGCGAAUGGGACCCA

variants of: B1; experiment: self-cleavage, relative activity (ratio to wild type); higher = more cleavage; co-transcriptional

# annotated cases, reported self-cleavage shown
mut: G31A C63A
recorded value: 0.379

mut: G50U G73A
recorded value: 0.634

mut: A42U C85A
recorded value: 0.415

mut: C36U A71G
recorded value: 0.653

Query :: Give self-cleavage for the following variant: C32U C44G
Result :: 0.374

Query :: Give self-cleavage for the following variant: C22G G54U
Result :: 0.0841
